system: tobacco budworm (Heliothis virescens [Fabricius]); test: surface-treated diet test, insecticidal activity against tobacco budworm; type: in vivo; conditions: 0.25 millimoles of candidate insecticide on the surface of the diet; second instar larvae; five-day exposure; compared to total number of insects infested

| compound | assayTarget | unitAbbrev | Percent Mortality |
| --- | --- | --- | --- |
| [O-][N+]1(Cc2ccc(-c3ncccc3Cl)cc2)CCC(O)(C(c2ccc(OC(F)(F)F)cc2)c2ccc(OC(F)(F)F)cc2)CC1 (centres unmarked) | tobacco budworm (Heliothis virescens [Fabricius]) | % | 100 |
| OC1(C(c2ccc(Br)cc2)c2ccc(OC(F)(F)F)cc2)CCN(Cc2ccc(Oc3ccccn3)cc2)CC1 (centres unmarked) | tobacco budworm (Heliothis virescens [Fabricius]) | % | 100 |
| OC1(C(c2ccc(C(F)(F)F)cc2)c2ccc(Cl)cc2Cl)CCN(Cc2ccc(Oc3ncccn3)cc2)CC1 (centres unmarked) | tobacco budworm (Heliothis virescens [Fabricius]) | % | 100 |
| COCCOCCON=Cc1ccc(C[N+]2([O-])CCC(O)(C(c3ccc(OC(F)(F)F)cc3)c3ccc(OC(F)(F)F)cc3)CC2)cc1 (centres unmarked) | tobacco budworm (Heliothis virescens [Fabricius]) | % | 100 |
| OC1(C(c2ccc(C(F)(F)F)cc2)c2ccc(C(F)(F)F)cc2)CCN(Cc2ccc(Oc3ccccn3)cc2)CC1 | tobacco budworm (Heliothis virescens [Fabricius]) | % | 100 |
| [N-]=[N+]=NCC1(C(c2ccc(C(F)(F)F)cc2)c2ccc(C(F)(F)F)cc2)CCN(Cc2ccc(OCC3CC3)cc2)CC1 | tobacco budworm (Heliothis virescens [Fabricius]) | % | 0 |
| COc1cc(CN2CCC(O)(C(c3ccc(OC(F)(F)F)cc3)c3ccc(OC(F)(F)F)cc3)CC2)ccc1Oc1ccccn1 | tobacco budworm (Heliothis virescens [Fabricius]) | % | 100 |
| FC(F)(F)c1ccc(C(c2ccc(C(F)(F)F)cc2)C2(F)CCN(Cc3ccc(Oc4ncccn4)cc3)CC2)cc1 | tobacco budworm (Heliothis virescens [Fabricius]) | % | 100 |
| OC1(C(c2ccc(OC(F)(F)F)cc2)c2ccc(OC(F)(F)F)cc2)CCN(CCOc2ccc(Br)cc2)CC1 | tobacco budworm (Heliothis virescens [Fabricius]) | % | 100 |
| CCOC(=O)COc1ccc(CN2CCC(O)(C(c3ccc(OC(F)(F)F)cc3)c3ccc(OC(F)(F)F)cc3)CC2)cc1 | tobacco budworm (Heliothis virescens [Fabricius]) | % | 83 |
| OC1(C(c2ccc(C(F)(F)F)cc2)c2cccc(F)c2)CCN(Cc2ccc(Oc3ncccn3)cc2)CC1 (centres unmarked) | tobacco budworm (Heliothis virescens [Fabricius]) | % | 0 |
| OC1(C(c2ccc(OC(F)(F)F)cc2)c2ccc(OC(F)(F)F)cc2)CCN(Cc2ccc(OCc3ccccc3)cc2)CC1 | tobacco budworm (Heliothis virescens [Fabricius]) | % | 100 |
| CCn1nnc(-c2ccc(CN3CCC(O)(C(c4cccc(Cl)c4)c4cccc(Cl)c4)CC3)cc2)n1 | tobacco budworm (Heliothis virescens [Fabricius]) | % | 0 |
| CC(C)OC(=O)c1ccc(CN2CCC(O)(C(c3ccc(C(F)(F)F)cc3)c3ccc(C(F)(F)F)cc3)CC2)cc1 | tobacco budworm (Heliothis virescens [Fabricius]) | % | 100 |
